Recorded values, source PubChem BioAssay.

- measurementTarget: Voltage-gated potassium channel subunit beta-2 (Rattus norvegicus)
- runDescription: enhancers of rat Kvbeta2 NADPH turnover – biochemical, NADPH fluorescence, primary screen (AID 623);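 note: fluorescence intensity change per second fitted from 20 to 320 s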
- conditionInfo: Recombinant KvBeta, NADPH fluorescence decrease slope, 10 min; at 10 µM; stronger effect = lower value
Let's look at some compounds and their measured NADPH fluorescence slope.
endpoint: NADPH fluorescence slope

compound=CCCc1cc(Nc2cccc(OC)c2)n2ncnc2n1 endpoint="NADPH fluorescence slope" assayresult=-3e-05
compound=CS(=O)(=O)N(CC(=O)NC1CC1)c1cccc(F)c1 endpoint="NADPH fluorescence slope" assayresult=-5e-05
compound=Nn1c(SCC(=O)Nc2ccc(S(=O)(=O)N3CCCC3)cc2)nnc1C(F)(F)F endpoint="NADPH fluorescence slope" assayresult=-6.5e-05
compound=O=C(NCCSc1c[nH]c2ccccc12)c1ccco1 endpoint="NADPH fluorescence slope" assayresult=-4e-05

====

- runDescription: inhibitors of TNFa-induced NFkB p65 translocation, primary screen, imaging, HUVEC, MLSMR starter and 10KST1 sets (AID 438);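 note: compound added about 3h40 before a 20 min TNFalpha stimulation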
- conditionInfo: HUVEC TNFa-induced p65 nuclear translocation; measured here: nuclei count (cytotoxicity indicator), at 2.08 µM
Use Yes when the recorded cell count is no lower than 500; use No when it is lower.

compound=CCCSc1nnc2nc3c(nn12)c1ccccc1n3C cat=Yes
compound=COc1cccc(CN(C(=O)c2cc3ccccc3oc2=O)C2CC2)c1 cat=No
compound=CCOC(=O)c1cc(-c2ccccc2)sc1N cat=No
compound=CCOC(=O)C1CCN(C(=O)Nc2ccc3nc(C)c(C)nc3c2)CC1 cat=No
compound=O=C(CSc1ncn[nH]1)c1ccco1 cat=Yes

====

- runDescription: TLR3 IRF3 reporter activation blockers – cell-based, poly I:C stimulus, luciferase, 10K MLSCN set, primary screen (AID 602277)
- conditionInfo: HEK293-TLR3 RL24 IRF3 luciferase reporter, at 10 µM, stronger effect = higher value
endpoint: inhibition (%)

compound="CN=C(C)C1=C(O)C(C(=O)OC)C(C)(C)CC1=O (centres undefined)" endpoint=inhibition assayresult=16.6
compound="CCC(C)(C)NC(=O)C(OC(=O)c1ccco1)c1ccccc1OC (centres undefined)" endpoint=inhibition assayresult=8.58
compound=CN1CCc2nc(SCC(=O)Nc3ccc(F)cc3)c(C#N)cc2C1 endpoint=inhibition assayresult=-52.9
compound="COc1ccc(C2C(C#N)=C(C)NC3=C2C(=O)CC(C)(C)C3)c(OC)c1 (centres undefined)" endpoint=inhibition assayresult=18.9
compound=CCOC(=O)c1sc2nc(NC(=O)COc3ccccc3)sc2c1C endpoint=inhibition assayresult=-40.4
compound=CCCN(CCO)Cc1cccc(Br)c1 endpoint=inhibition assayresult=19.3
compound=Cc1csc(NC(=O)c2ccccc2C(=O)O)n1 endpoint=inhibition assayresult=3.54
compound=CCCNC(=O)c1c(N)n(-c2cc(OC)cc(OC)c2)c2nc3ccccc3nc12 endpoint=inhibition assayresult=-6.79
compound="CC(C)COC(=O)C1[C@H]2C(=O)N(Cc3cccs3)C[C@]23C=C[C@H]1O3 (some centres undefined)" endpoint=inhibition assayresult=32.4
compound=Cn1c(=O)[nH]c(=O)c2c1nc(N1CCCCC1)n2CCSc1ncccn1 endpoint=inhibition assayresult=25.5
compound=COCCCNC(=O)CSc1nc2ccc(N3CCOCC3)cc2c(=O)n1CCc1ccccc1 endpoint=inhibition assayresult=-8.93
compound=CC(C)CN1C(=O)c2ccc(C(=O)Nc3nccs3)cc2C1=O endpoint=inhibition assayresult=5.57
compound=Nc1cc(N)nc(SCc2ccccc2)n1 endpoint=inhibition assayresult=-101
compound=O=C(O)c1oc2ccccc2c1-n1cccc1 endpoint=inhibition assayresult=26
compound=O=C(CSc1nc2cc(Cl)ccc2s1)N1CCN(C(=O)c2ccco2)CC1 endpoint=inhibition assayresult=27.6
compound=COc1ccc(N(CC(=O)N2CCCCC2)S(=O)(=O)c2ccccc2)c(OC)c1 endpoint=inhibition assayresult=26.9
compound="CC1(C(=O)NC2CCCCC2)CCC(=O)N1Cc1cccs1 (centres undefined)" endpoint=inhibition assayresult=12.6
compound=O=C(NC1CCCCCC1)c1c(F)c(F)c(F)c(F)c1F endpoint=inhibition assayresult=12.3
compound=CCCn1c(SCC(=O)NCCc2ccccc2)nnc1-c1ccccn1 endpoint=inhibition assayresult=12.4
